# System: cysteine peptide Ac-RFAACAA-COOH
# testProtocol: AC50 of cysteine peptide concentration-response (direction given by sign of efficacy); higher = less potent
# cond: incubation time: 24 h
Where a name gives a salt, the structure may show the parent alone.
Let's look at some molecules and their measured AC50.

| molecule | AC50 [µM] |
| --- | --- |
| CO[C@@H]1[C@H](OC(=O)/C=C/C=C/C=C/C=C/C(=O)O)CC[C@]2(CO2)[C@H]1[C@@]1(C)O[C@@H]1CC=C(C)C [Fumagillin] | 23 |
| C=CC(=O)OCCOC(=O)CCC(=O)O [4-[2-(Acryloyloxy)ethoxy]-4-oxobutanoic acid] | 34.1 |
| Sc1nc2ccccc2s1 [2-Mercaptobenzothiazole] | 32.9 |
| C=CC(=O)OCC(COC(=O)C=C)(COC(=O)C=C)COC(=O)C=C [Pentaerythritol tetraacrylate] | 3.11 |
| c1csc(SSc2cccs2)c1 [2-Thienyl disulfide] | 1.04 |
| CC(C)OC(=S)S [Proxan-sodium] | 73.6 |
| O=[N+]([O-])c1ccc(O/N=C/c2cc(Br)c(O)c(Br)c2)c([N+](=O)[O-])c1 [Bromofenoxim] | 8.35 |
| Oc1ccc2cc(SSc3ccc4cc(O)ccc4c3)ccc2c1 [6-Hydroxy-2-naphthyl disulfide] | 0.36 |
| CCCSS/C(CCO)=C(/C)N(C=O)Cc1cnc(C)nc1N [Prosultiamine] | 1.59 |
| O=[N+]([O-])c1cc(C(F)(F)F)c(Cl)c([N+](=O)[O-])c1Cl [2,4-Dichloro-1,3-dinitro-5-(trifluoromethyl)benzene] | 23.8 |
| CC(C)=CC1C(C(=O)OCc2coc(Cc3ccccc3)c2)C1(C)C (stereo not drawn) [Resmethrin] | 58.1 |
| CC(C)Nc1ccc(Nc2ccccc2)cc1 [N-Isopropyl-N'-phenyl-p-phenylenediamine] | 2.82 |
| Cn1sccc1=O [2-Methyl-4-isothiazolin-3-one hydrochloride] | 2.42 |
| NC(=O)n1c(O)c(C(=O)c2cccs2)c2cc(Cl)ccc21 [Tenidap*] | 50.1 |
| CN1C[C@H](C(=O)N[C@]2(C)O[C@@]3(O)[C@@H]4CCCN4C(=O)[C@H](Cc4ccccc4)N3C2=O)C=C2c3cccc4[nH]cc(c34)C[C@H]21 [Ergotamine D-tartrate*] | 11.4 |
| O=c1[nH]sc2cc(Cl)ccc12 [Ticlatone] | 0.65 |
| Nc1cc(Cl)c(O)c(Cl)c1 [4-Amino-2,6-dichlorophenol] | 0.27 |
| CC(C)CP(=S)(S)CC(C)C [Sodium bis(2-methylpropyl)phosphinodithioate] | 76.5 |

====

# Tested on: lysine peptide Ac-RFAAKAA-COOH
# testProtocol: efficacy of lysine peptide change (negative = depletion) (% activity); higher = less depletion
# cond: incubation time: 24 h

| molecule | efficacy of lysine peptide change |
| --- | --- |
| c1ccc(CCNc2nc(-c3ccccc3)cs2)cc1 [Fanetizole] | 35 |
| Fc1ccc(Oc2ccnc3cc(Cl)cc(Cl)c23)cc1 [Quinoxyfen] | -7.82 |
| C=C(C)C(=O)Nc1ccc(Cl)c(Cl)c1 [Chloranocryl] | 82.1 |
| CN(C)S(=O)(=O)N(SC(F)(Cl)Cl)c1ccccc1 [Dichlofluanid] | 62.1 |
| COc1ccc(C(c2ccc(OC)cc2)C(Cl)(Cl)Cl)cc1 [Methoxychlor] | -3.51 |
| C=C1CC[C@H](O)C/C1=C/C=C1\CCC[C@]2(C)[C@@H]([C@H](C)/C=C/[C@H](C)C(C)C)CC[C@@H]12 [Ergocalciferol*] | -20.5 |
| O=C(O)Cn1c(C(=O)Nc2nc(-c3ccccc3Cl)cs2)cc2ccccc21 [Lintitript] | -12.9 |
| CCOC(=O)CCC(=O)OCC [Diethyl butanedioate] | 2.82 |
| Cc1c2ccccc2c(C)c2c1ccc1ccccc12 [7,12-Dimethylbenzanthracene] | -47.7 |
| CCOCN(C(=O)CCl)c1c(C)cccc1CC [Acetochlor] | 79.9 |
| CC(C)=CCC1C(=O)N(c2ccccc2)N(c2ccccc2)C1=O [Feprazone] | 0 |
| CCCCCCCCN [n-Octylamine] | -6.29 |
| CC(C)(C)C(=O)CCl [1-Chloro-3,3-dimethyl-butan-2-one] | -4.45 |
| O=c1cc(-c2ccccc2)oc2cc(O)cc(O)c12 [Chrysin] | 22 |
| Nc1ccc(Cl)cc1Cl [2,4-Dichloroaniline] | 6.42 |
| c1cc(OCC2CO2)ccc1Cc1ccc(OCC2CO2)cc1 (stereo not given) [Bis[4-(glycidyloxy)phenyl]methane] | 62.7 |
| [Cl][Cd][Cl] [Cadmium II chloride] | 4.14 |
| O=C(Nc1ccccc1)c1cc([N+](=O)[O-])ccc1Cl [2-Chloro-5-nitro-N-phenylbenzamide] | 58.4 |
| CC(C)Nc1ccc(Nc2ccccc2)cc1 [N-Isopropyl-N'-phenyl-p-phenylenediamine] | -5.38 |
| Nc1ccc(N)cc1 [1,4-Benzenediamine] | 61 |
